Listed binders paired with reported pKd
Target Or System: T1, human IL-18BP (human, UniProt O95998 31-194)
T1 construct: UniProt printed as 095998; also called hIL-18BP
T1 sequence: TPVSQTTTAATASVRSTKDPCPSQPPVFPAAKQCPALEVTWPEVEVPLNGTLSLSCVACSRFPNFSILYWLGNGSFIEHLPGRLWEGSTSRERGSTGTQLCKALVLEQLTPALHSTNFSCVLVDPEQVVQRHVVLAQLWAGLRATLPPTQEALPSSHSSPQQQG
Test Details: BLI, apparent KD
Interpret pKd as the negative base-10 log of the concentration measured in mol/L.

Answered cases to consult:
So what does the record say about pKd for SA301a HC-S56A (antibody, name in Kabat numbering, V domains shown, IgG1 kappa) VH: QVQLQESGPGLVKPSQTLSLTCTVSGYSITSDYNSHWIRQPPGKGLEWIGYIHYSGATNYNPSLKSRVTISRDTSKNQFSLKLSSVTAADTAVYYCARNYGSIYVNYFDYWGQGTLVTVSS VL: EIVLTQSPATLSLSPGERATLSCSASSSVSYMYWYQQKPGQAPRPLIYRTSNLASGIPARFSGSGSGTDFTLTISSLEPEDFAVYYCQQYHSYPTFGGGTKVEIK ?
9.70

Requested field: pKd. Item: SA301a HC-Y59P (antibody, name in Kabat numbering, V domains shown, IgG1 kappa) VH: QVQLQESGPGLVKPSQTLSLTCTVSGYSITSDYNSHWIRQPPGKGLEWIGYIHYSGSTNPNPSLKSRVTISRDTSKNQFSLKLSSVTAADTAVYYCARNYGSIYVNYFDYWGQGTLVTVSS VL: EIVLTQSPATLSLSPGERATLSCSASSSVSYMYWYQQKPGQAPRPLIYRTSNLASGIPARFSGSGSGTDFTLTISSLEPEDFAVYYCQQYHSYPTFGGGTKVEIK
10.10

Next:
Returns the measured pKd for the input binder. Input: SA301a HC-S56K (antibody, name in Kabat numbering, V domains shown, IgG1 kappa) VH: QVQLQESGPGLVKPSQTLSLTCTVSGYSITSDYNSHWIRQPPGKGLEWIGYIHYSGKTNYNPSLKSRVTISRDTSKNQFSLKLSSVTAADTAVYYCARNYGSIYVNYFDYWGQGTLVTVSS VL: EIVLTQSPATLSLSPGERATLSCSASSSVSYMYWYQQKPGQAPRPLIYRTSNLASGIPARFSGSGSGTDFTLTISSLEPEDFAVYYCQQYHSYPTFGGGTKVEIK
9.19
